Sourced from PubChem BioAssay AID2060347

- System: 817829-284-R-J1-PDC spheroids with HUVEC/MSC, viability
- protocol_notes: Anticancer human tumor 817829-284-R-J1-PDC patient-derived colon adenocarcinoma cell line growth inhibition [TAK]; active = viability on the fitted dose curve at most 10% of control; inactive = the rest
- conditions: second compound 9.49 µM; first compound 0.00316 µM
Outcomes: Y (active), N (inactive)

[
  {
    "compound": "COC1CC2CCC(C)C(O)(O2)C(=O)C(=O)N2CCCCC2C(=O)OC(C(C)CC2CCC(OCCO)C(OC)C2)CC(=O)C(C)C=C(C)C(O)C(OC)C(=O)C(C)CC(C)C=CC=CC=C1C (stereo not given) + CC(C)NCC(C(=O)N1CCN(c2ncnc3c2C(C)CC3O)CC1)c1ccc(Cl)cc1",
    "system_tested": "817829-284-R-J1-PDC spheroids with HUVEC/MSC, viability",
    "label": "N"
  },
  {
    "compound": "CC(C)CC(NC(=O)CNC(=O)c1cc(Cl)ccc1Cl)B1OC(=O)CC(CC(=O)O)(C(=O)O)O1 (stereo not given) + CC(C)NCC(C(=O)N1CCN(c2ncnc3c2C(C)CC3O)CC1)c1ccc(Cl)cc1",
    "system_tested": "817829-284-R-J1-PDC spheroids with HUVEC/MSC, viability",
    "label": "Y"
  },
  {
    "compound": "COc1c(OCCCN2CCOCC2)ccc2c3n(c(=NC(=O)c4cnc(N)nc4)nc12)CCN3 + CC(C)NCC(C(=O)N1CCN(c2ncnc3c2C(C)CC3O)CC1)c1ccc(Cl)cc1",
    "system_tested": "817829-284-R-J1-PDC spheroids with HUVEC/MSC, viability",
    "label": "Y"
  },
  {
    "compound": "CC(C)CC(NC(=O)C(Cc1ccccc1)NC(=O)c1cnccn1)B(O)O (stereo not given) + CC(C)NCC(C(=O)N1CCN(c2ncnc3c2C(C)CC3O)CC1)c1ccc(Cl)cc1",
    "system_tested": "817829-284-R-J1-PDC spheroids with HUVEC/MSC, viability",
    "label": "Y"
  },
  {
    "compound": "CC(C)n1nc(-c2ccc3oc(N)nc3c2)c2c(N)ncnc21 + CC(C)NCC(C(=O)N1CCN(c2ncnc3c2C(C)CC3O)CC1)c1ccc(Cl)cc1",
    "system_tested": "817829-284-R-J1-PDC spheroids with HUVEC/MSC, viability",
    "label": "Y"
  }
]

* * *

- System: 817829-284-R-J1-PDC spheroids with HUVEC/MSC, viability
- protocol_notes: Anticancer human tumor 817829-284-R-J1-PDC cell line growth inhibition [TAK]
- conditions: curve of first compound; second compound 0.3 µM
- Description: Combinatorial screen of targeted agents with TAK-243 and ipatasertib in multi-cell type tumor spheroids […] Compounds. […] If the clinical Cmax for an agent had not been determined, the highest concentration tested was 10 microM. NCI60 Cell Culture. […] The optimal seeding densities for each of the cell lines at each time point assessed were determined prior to performing the concentration response studies. […]
// returns Condition not met unless IC50 is strictly below 10 nM, in which case Condition met

[
  {
    "molecule": "Cc1nc(NC(=O)N2CCCC2C(N)=O)sc1-c1ccnc(C(C)(C)C(F)(F)F)c1 (stereo not given) + CC(C)NCC(C(=O)N1CCN(c2ncnc3c2C(C)CC3O)CC1)c1ccc(Cl)cc1",
    "label": "Condition not met"
  },
  {
    "molecule": "COC1CC2CCC(C)C(O)(O2)C(=O)C(=O)N2CCCCC2C(=O)OC(C(C)CC2CCC(OCCO)C(OC)C2)CC(=O)C(C)C=C(C)C(O)C(OC)C(=O)C(C)CC(C)C=CC=CC=C1C (stereo not given) + CC(C)NCC(C(=O)N1CCN(c2ncnc3c2C(C)CC3O)CC1)c1ccc(Cl)cc1",
    "label": "Condition not met"
  },
  {
    "molecule": "CC(C)(C)c1nc(-c2cccc(NS(=O)(=O)c3c(F)cccc3F)c2F)c(-c2ccnc(N)n2)s1 + CC(C)NCC(C(=O)N1CCN(c2ncnc3c2C(C)CC3O)CC1)c1ccc(Cl)cc1",
    "label": "Condition not met"
  },
  {
    "molecule": "COc1c(OCCCN2CCOCC2)ccc2c3n(c(=NC(=O)c4cnc(N)nc4)nc12)CCN3 + CC(C)NCC(C(=O)N1CCN(c2ncnc3c2C(C)CC3O)CC1)c1ccc(Cl)cc1",
    "label": "Condition met"
  },
  {
    "molecule": "CC(=O)Nc1cccc(-n2c(=O)n(C3CC3)c(=O)c3c(Nc4ccc(I)cc4F)n(C)c(=O)c(C)c32)c1 + CC(C)NCC(C(=O)N1CCN(c2ncnc3c2C(C)CC3O)CC1)c1ccc(Cl)cc1",
    "label": "Condition met"
  },
  {
    "molecule": "Cn1cnc2c(F)c(Nc3ccc(Br)cc3Cl)c(C(=O)NOCCO)cc21 + CC(C)NCC(C(=O)N1CCN(c2ncnc3c2C(C)CC3O)CC1)c1ccc(Cl)cc1",
    "label": "Condition not met"
  },
  {
    "molecule": "CCCS(=O)(=O)Nc1ccc(F)c(C(=O)c2c[nH]c3ncc(-c4ccc(Cl)cc4)cc23)c1F + CC(C)NCC(C(=O)N1CCN(c2ncnc3c2C(C)CC3O)CC1)c1ccc(Cl)cc1",
    "label": "Condition not met"
  },
  {
    "molecule": "CC(C)CC(NC(=O)C(Cc1ccccc1)NC(=O)c1cnccn1)B(O)O (stereo not given) + CC(C)NCC(C(=O)N1CCN(c2ncnc3c2C(C)CC3O)CC1)c1ccc(Cl)cc1",
    "label": "Condition met"
  },
  {
    "molecule": "CC(C)n1nc(-c2ccc3oc(N)nc3c2)c2c(N)ncnc21 + CC(C)NCC(C(=O)N1CCN(c2ncnc3c2C(C)CC3O)CC1)c1ccc(Cl)cc1",
    "label": "Condition not met"
  },
  {
    "molecule": "CC(C)CC(NC(=O)CNC(=O)c1cc(Cl)ccc1Cl)B1OC(=O)CC(CC(=O)O)(C(=O)O)O1 (stereo not given) + CC(C)NCC(C(=O)N1CCN(c2ncnc3c2C(C)CC3O)CC1)c1ccc(Cl)cc1",
    "label": "Condition not met"
  }
]

* * *

// values below are reported IC50
- Tested on: 817829-284-R-J1-PDC spheroids with HUVEC/MSC, viability
- protocol_notes: Anticancer human tumor 817829-284-R-J1-PDC cell line growth inhibition [TAK]
- conditions: curve of first compound; second compound 30 µM
endpoint: IC50

[
  {
    "compound": "CC(C)n1nc(-c2ccc3oc(N)nc3c2)c2c(N)ncnc21 + CC(C)NCC(C(=O)N1CCN(c2ncnc3c2C(C)CC3O)CC1)c1ccc(Cl)cc1",
    "endpoint": "IC50",
    "experimental_result": "< 0.316 nM"
  },
  {
    "compound": "CC(C)(C)c1nc(-c2cccc(NS(=O)(=O)c3c(F)cccc3F)c2F)c(-c2ccnc(N)n2)s1 + CC(C)NCC(C(=O)N1CCN(c2ncnc3c2C(C)CC3O)CC1)c1ccc(Cl)cc1",
    "endpoint": "IC50",
    "experimental_result": "< 31.6 nM"
  },
  {
    "compound": "CC(C)CC(NC(=O)CNC(=O)c1cc(Cl)ccc1Cl)B1OC(=O)CC(CC(=O)O)(C(=O)O)O1 (stereo not given) + CC(C)NCC(C(=O)N1CCN(c2ncnc3c2C(C)CC3O)CC1)c1ccc(Cl)cc1",
    "endpoint": "IC50",
    "experimental_result": "< 0.316 nM"
  },
  {
    "compound": "CCCS(=O)(=O)Nc1ccc(F)c(C(=O)c2c[nH]c3ncc(-c4ccc(Cl)cc4)cc23)c1F + CC(C)NCC(C(=O)N1CCN(c2ncnc3c2C(C)CC3O)CC1)c1ccc(Cl)cc1",
    "endpoint": "IC50",
    "experimental_result": "< 316 nM"
  },
  {
    "compound": "CC(C)CC(NC(=O)C(Cc1ccccc1)NC(=O)c1cnccn1)B(O)O (stereo not given) + CC(C)NCC(C(=O)N1CCN(c2ncnc3c2C(C)CC3O)CC1)c1ccc(Cl)cc1",
    "endpoint": "IC50",
    "experimental_result": "< 0.0316 nM"
  },
  {
    "compound": "Cn1cnc2c(F)c(Nc3ccc(Br)cc3Cl)c(C(=O)NOCCO)cc21 + CC(C)NCC(C(=O)N1CCN(c2ncnc3c2C(C)CC3O)CC1)c1ccc(Cl)cc1",
    "endpoint": "IC50",
    "experimental_result": "< 9.49 nM"
  },
  {
    "compound": "COC1CC2CCC(C)C(O)(O2)C(=O)C(=O)N2CCCCC2C(=O)OC(C(C)CC2CCC(OCCO)C(OC)C2)CC(=O)C(C)C=C(C)C(O)C(OC)C(=O)C(C)CC(C)C=CC=CC=C1C (stereo not given) + CC(C)NCC(C(=O)N1CCN(c2ncnc3c2C(C)CC3O)CC1)c1ccc(Cl)cc1",
    "endpoint": "IC50",
    "experimental_result": "< 0.316 nM"
  },
  {
    "compound": "Cc1nc(NC(=O)N2CCCC2C(N)=O)sc1-c1ccnc(C(C)(C)C(F)(F)F)c1 (stereo not given) + CC(C)NCC(C(=O)N1CCN(c2ncnc3c2C(C)CC3O)CC1)c1ccc(Cl)cc1",
    "endpoint": "IC50",
    "experimental_result": "< 31.6 nM"
  },
  {
    "compound": "CC(=O)Nc1cccc(-n2c(=O)n(C3CC3)c(=O)c3c(Nc4ccc(I)cc4F)n(C)c(=O)c(C)c32)c1 + CC(C)NCC(C(=O)N1CCN(c2ncnc3c2C(C)CC3O)CC1)c1ccc(Cl)cc1",
    "endpoint": "IC50",
    "experimental_result": "< 0.0949 nM"
  },
  {
    "compound": "COc1c(OCCCN2CCOCC2)ccc2c3n(c(=NC(=O)c4cnc(N)nc4)nc12)CCN3 + CC(C)NCC(C(=O)N1CCN(c2ncnc3c2C(C)CC3O)CC1)c1ccc(Cl)cc1",
    "endpoint": "IC50",
    "experimental_result": "< 3.16 nM"
  }
]
